- TARGET SYSTEM: serotonin (5-HT) reuptake (Rattus norvegicus)
- Construct: synaptosomes are freshly isolated from areas of the rat brain; from tissue; host or cells: rat brain synaptosomes (P2 fraction)
- Sequence (P31652 whole entry): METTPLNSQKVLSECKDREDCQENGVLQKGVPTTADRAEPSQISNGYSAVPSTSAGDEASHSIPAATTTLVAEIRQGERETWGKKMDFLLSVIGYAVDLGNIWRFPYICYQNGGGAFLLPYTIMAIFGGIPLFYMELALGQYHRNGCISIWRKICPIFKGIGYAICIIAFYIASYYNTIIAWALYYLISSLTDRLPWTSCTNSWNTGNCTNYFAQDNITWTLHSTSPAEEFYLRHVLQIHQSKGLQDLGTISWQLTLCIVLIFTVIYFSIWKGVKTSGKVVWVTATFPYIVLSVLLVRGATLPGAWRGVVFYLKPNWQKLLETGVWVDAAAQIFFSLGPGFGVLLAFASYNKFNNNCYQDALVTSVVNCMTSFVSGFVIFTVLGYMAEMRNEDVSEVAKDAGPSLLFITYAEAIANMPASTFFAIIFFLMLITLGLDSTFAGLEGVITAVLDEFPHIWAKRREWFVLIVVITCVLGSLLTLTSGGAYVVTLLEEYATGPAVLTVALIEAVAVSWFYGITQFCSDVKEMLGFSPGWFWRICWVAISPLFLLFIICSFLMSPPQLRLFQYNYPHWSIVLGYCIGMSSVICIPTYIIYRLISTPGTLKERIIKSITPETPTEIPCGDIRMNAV
- ASSAY DETAILS: Inhibition of serotonin (5HT) reuptake in synaptosomes from rat brain
- Format: biochemical
- MEASUREMENT SETUP: test concentration of 10 μM
Measured 5-HT (inhibition of reuptake of serotonin, % inhibition) values are reported for all entries that follow.
Numeric answer plus unit only.

Consider the worked cases shown below.
> print(dat)
                                   molecule  observed
1  CN(C)C(c1ccc(F)cc1)C1CCC(CNC(=O)COCCN(Cc2ccccc2)S(=O)(=O)c2ccccc2)CC1 (stereo not shown)       94%
2  CN(C)C(c1cccs1)C1CCC(CNC(=O)COC2CCN(S(=O)(=O)c3ccccc3)CC2)CC1 (stereo not shown)       93%
3  COc1ccc(S(=O)(=O)N2CCCCC2COCC(=O)NCC2CCC(C(CCc3ccccc3)N(C)C)CC2)cc1 (stereo not shown)       87%
4  CN(C)C(c1ccc(F)cc1)C1CCC(CNC(=O)COCC2CCCN(S(=O)(=O)c3ccccc3)C2)CC1 (stereo not shown)       96%
5  CN(C)C(c1ccc(F)cc1)C1CCC(NC(=O)COCC2CCCN2S(=O)(=O)c2ccc(Cl)c(Cl)c2)CC1 (stereo not shown)       97%

5-HT (inhibition of reuptake of serotonin, % inhibition) value, target or system serotonin (5-HT) reuptake (Rattus norvegicus), for CN(C)C(c1ccc(Cl)cc1)C1CCC(CNC(=O)COCCN(C)S(=O)(=O)c2c(Cl)cccc2Cl)CC1 (stereo not shown) : 72%

5-HT (inhibition of reuptake of serotonin, % inhibition) value, target or system serotonin (5-HT) reuptake (Rattus norvegicus), for CN(C)C(c1ccc(Cl)cc1)C1CCC(CNC(=O)COC2CCN(S(=O)(=O)c3cccc(C(F)(F)F)c3)C2)CC1 (stereo not shown) : 84%
